system: mESC Bmi1-luciferase reporter, firefly/renilla ratio, 24 h; test: compounds raising Bmi1 reporter signal – mouse embryonic stem cells, luciferase, cherry-pick, esBAF inhibitor project, dose response (AID 651717);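 also: luciferase knocked into Bmi1 locus with EF-1a renilla as cell number control; rising ratio signals esBAF inhibition which derepresses Bmi1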
measurementKind: AC40

Use the examples below as a reference point.
{"columns": ["molecule", "AC40"],
 "data": [
  ["COc1ccccc1C(=O)NCC(=O)Nc1ccc2c(c1)CCC2", "3.24 µM"],
  ["CC(=O)c1ccc(N2CCN(C(=O)c3ccc(Cn4c(=S)[nH]c5ccc(N6CCOCC6)cc5c4=O)cc3)CC2)cc1", "24.8 µM"],
  ["Cc1cc(C)c2nc(-c3ccccc3)ccc2c1", "1.5 µM"],
  ["COc1ccc(Cc2c(-c3ccccc3)nc3ccc(Br)cn23)c(C)c1", "8.9 µM"],
  ["Cc1nc(NCc2ccccc2)sc1C(=O)Nc1ccccc1", "8.44 µM"]
]}

Lookup: Param item = C[C@H]1CN([C@@H](C)CO)C(=O)CCCn2nncc2CO[C@@H]1CN(C)C(=O)Nc1ccc2c(c1)OCCO2 ; retrieve measured AC40.
Found: 29.2 µM

Lookup: Next: CN(C)c1ccccc1-c1csc(N2CCC(C(N)=O)CC2)n1
Found: < 0.26 µM

Lookup: Try this molecule next: Cn1cnc(S(=O)(=O)N2CCCCC2c2cc(C(=O)Nc3ccc(F)c(Cl)c3)no2)c1 (configuration not stated)
Found: 8.38 µM

Lookup: How about COc1ccc(C2=NN(C(=O)c3ccccc3C(=O)O)C(c3ccccc3O)C2)cc1 (configuration not stated) ?
Found: 6.57 µM

Lookup: What do you have for O=C(Nc1ccc2oc(-c3ccccc3)nc2c1)c1cccs1 ?
Found: 1.58 µM

Lookup: Lookup Cc1ccc(NC(=O)Cc2noc3ccccc23)cc1
Found: 2.47 µM

====

system: mESC Bmi1-luciferase reporter, firefly/renilla ratio, 24 h; test: compounds raising Bmi1 reporter signal – mouse embryonic stem cells, luciferase, cherry-pick, esBAF inhibitor project, dose response (AID 651717)
The entries below are paired with their reported AC40.

Lookup: Entry O=C(NCCCc1ccccc1)c1ccccc1O , system mESC Bmi1-luciferase reporter, firefly/renilla ratio, 24 h: what AC40 was measured?
Found: 10.7 µM

Lookup: Similarly, Cc1ccccc1CNC(=O)Nc1ccc(Cl)cc1 ?
Found: 15.1 µM

Lookup: Quick one: COc1ccc2c(CN(C)Cc3ccccc3)cc(=O)oc2c1
Found: 0.841 µM

Lookup: Then CCOC(=O)C1=C(CSc2nc(-c3ccccc3)ccc2C#N)OC(N)=C(C#N)C1c1ccccc1 (configuration not stated) ?
Found: 12.4 µM

Lookup: // query: CCn1c2ccccc2c2cc(NC(=O)N3CCCCC3)ccc21
Found: 1.19 µM

Lookup: Same for COc1ccc(C2=Nc3ccccc3NC(=O)C2N(C(=O)c2cnc(C)cn2)c2ccc(N3CCOCC3)cc2)cc1 (configuration not stated)
Found: 21.8 µM

Lookup: Repeat for the following compound: Cc1ccc(Nc2nc(-c3cccnc3)cs2)cc1Cl
Found: 0.961 µM

Lookup: Try this compound next: Cc1cccc(-n2nnc(C(=O)Nc3ccc(F)cc3)c2N)c1
Found: 0.798 µM

Lookup: Please give the result for COc1cccc(/C=C2\SC(N3CCCC(C)C3)=NC2=O)c1OC (configuration not stated) too.
Found: 9.58 µM

Lookup: Subsequent entry: COc1ccc(C(=O)Nc2cc3c4c(c2)CC(=O)N4CCC3)c(OC)c1
Found: 5.13 µM

Lookup: Entry O=C(O)c1cncc(C#CCC2CCCCC2)c1 please
Found: 15.6 µM

Lookup: Consider next the compound CCCCc1nc2cc(C(=O)N3CCN(c4nc(C)cnc4C)CC3)ccc2o1 in the same way.
Found: 2.43 µM

Lookup: Same for Cc1sc2nc(-c3cccnc3)nc(Cl)c2c1-c1ccccc1
Found: 19.5 µM

Lookup: Next up: O=C1CC(/C=C/c2ccncc2)=Nc2ccccc2N1
Found: 6.57 µM

Lookup: Fc1ccc2cc(-c3ccsc3)ncc2c1 ?
Found: 3.16 µM

Lookup: Same again, this time with COc1ccc(C2Nc3ccccc3C(=O)N2c2ccc(C)cc2)cc1Cn1nc(C)c([N+](=O)[O-])c1C (configuration not stated)
Found: 12.6 µM

Lookup: Another compound: OC(c1ccccc1)c1nc(/C=C/c2ccccc2)cs1 (configuration not stated)
Found: 4.88 µM

Lookup: Quick one: c1ccc(-n2nnc3ccccc32)nc1
Found: 11.2 µM

Lookup: What about COc1cccc(/C=N/n2c(N)nc3ccccc32)c1OC ?
Found: 3.21 µM

Lookup: Consider next the compound Cc1ccc(NC(=O)Nc2cccc(C)n2)c(C)c1 in the same way.
Found: 6.01 µM

====

system: mESC Bmi1-luciferase reporter, firefly/renilla ratio, 24 h; assay: compounds raising Bmi1 reporter signal – mouse embryonic stem cells, luciferase, cherry-pick, esBAF inhibitor project, dose response (AID 651717)
measurementKind: AC40

Recorded AC40, per entry:
{"columns": ["molecule", "systemUnderTest", "AC40"],
 "data": [
  ["O=C1CCCc2c1sc1nc3n(c(=O)c21)CCCCC3", "mESC Bmi1-luciferase reporter, firefly/renilla ratio, 24 h", "4.12 µM"],
  ["O=C(O)C=C1CCN(c2ncc(C(F)(F)F)cc2Cl)CC1", "mESC Bmi1-luciferase reporter, firefly/renilla ratio, 24 h", "2.07 µM"]
]}

Lookup: GET /values?readout=AC40&item= Cc1cc(N2CCCCC2)nc2ccc(NC(=O)CCC(=O)NCCC(C)C)cc12
Found: 16.6 µM

Lookup: Do the same for Cc1ccc(-n2nnc(-c3cccnc3)n2)cc1 please
Found: 0.926 µM

====

test system: mESC Bmi1-luciferase reporter, firefly/renilla ratio, 24 h; experiment: compounds raising Bmi1 reporter signal – mouse embryonic stem cells, luciferase, cherry-pick, esBAF inhibitor project, dose response (AID 651717);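 also: luciferase knocked into Bmi1 locus with EF-1a renilla as cell number control; rising ratio signals esBAF inhibition which derepresses Bmi1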
measurementKind: AC40

Past entries and their recorded results:
{"columns": ["molecule", "systemUnderTest", "result"],
 "data": [
  ["Cc1ccc(Nc2cccccc2=O)cc1", "mESC Bmi1-luciferase reporter, firefly/renilla ratio, 24 h", "3.88 µM"],
  ["COc1ccc(N=Cc2c(O)[nH]c3ccccc23)cc1OC", "mESC Bmi1-luciferase reporter, firefly/renilla ratio, 24 h", "3.05 µM"],
  ["COc1ccc(Cl)cc1C(=O)Nc1ccc(Br)c(C)n1", "mESC Bmi1-luciferase reporter, firefly/renilla ratio, 24 h", "6.83 µM"],
  ["O=C(Nc1cccc2ccccc12)c1cnccn1", "mESC Bmi1-luciferase reporter, firefly/renilla ratio, 24 h", "6.43 µM"],
  ["Cc1cccc(Oc2coc3cc(O)ccc3c2=O)c1", "mESC Bmi1-luciferase reporter, firefly/renilla ratio, 24 h", "15.7 µM"]
]}

Lookup: Recall the recorded AC40 for Cc1ccc(NC(=O)c2ccc3c(=O)n4c(nc3c2)CCC4)cc1F with mESC Bmi1-luciferase reporter, firefly/renilla ratio, 24 h and state it.
Found: 0.945 µM

Lookup: Then O=C(NC1CCCCC1)c1cc(-c2cccc(Cl)c2)on1 ?
Found: 6.04 µM

Lookup: Similarly, COc1cc(CNc2ccc(N3CCN(C(C)=O)CC3)cc2)ccc1OCc1ccc(F)cc1 ?
Found: 3.93 µM

Lookup: Subsequent entry: Cc1csc(NC(=O)Nc2ccc(Cl)cc2)n1
Found: 2.68 µM

====

test system: mESC Bmi1-luciferase reporter, firefly/renilla ratio, 24 h; assay: compounds raising Bmi1 reporter signal – mouse embryonic stem cells, luciferase, cherry-pick, esBAF inhibitor project, dose response (AID 651717);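 also: luciferase knocked into Bmi1 locus with EF-1a renilla as cell number control; rising ratio signals esBAF inhibition which derepresses Bmi1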
measurementKind: AC40

{"columns": ["compound", "measurementKind", "result"],
 "data": [
  ["O=C1NC(=Nc2ccccc2)S/C1=C\\c1cccn1-c1ccccc1", "AC40", "2.43 µM"]
]}

Lookup: Item COC(=O)c1c(-c2ccc(Br)cc2)noc1N has what recorded AC40?
Found: 14.7 µM

Lookup: Same question for O=C(Nc1ccccc1)c1cc(C2CCCN(C(=O)c3ccccc3)C2)on1 (stereo not drawn) please.
Found: 4.54 µM

====

system: mESC Bmi1-luciferase reporter, firefly/renilla ratio, 24 h; assay: compounds raising Bmi1 reporter signal – mouse embryonic stem cells, luciferase, cherry-pick, esBAF inhibitor project, dose response (AID 651717);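 also: luciferase knocked into Bmi1 locus with EF-1a renilla as cell number control; rising ratio signals esBAF inhibition which derepresses Bmi1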
measurementKind: AC40

The following compounds have reported results that may help.
{"columns": ["compound", "AC40"],
 "data": [
  ["CCN(CC(=O)NCc1ccc(F)cc1)C(=O)c1ccc(COc2ccccc2)cc1", "25.2 µM"],
  ["COc1ccc(-c2ccc3n2Cc2cnnn2-c2ccccc2-3)cc1", "4.57 µM"],
  ["COC(=O)C1CCc2c(ccc3c2CCCC3)C1=O (stereo not drawn)", "4.54 µM"],
  ["COc1ccc(NC(=O)c2cc(-c3ccccc3Cl)on2)cc1", "11.8 µM"],
  ["COc1ccc(Nc2cc(C)c3c(O)cccc3n2)cc1", "3.84 µM"]
]}

Lookup: So what AC40 did O=C(N/N=C/c1ccc(Cl)cc1)Nc1ccccc1 get with mESC Bmi1-luciferase reporter, firefly/renilla ratio, 24 h?
Found: 5.34 µM

Lookup: And O=C(NCC1CC1)Nc1ccc(Cl)cc1 ?
Found: 15.5 µM

Lookup: Follow-up entry: Cc1ccc(NC(=O)Nc2ccc(F)c(Cl)c2)cc1
Found: 1.85 µM

Lookup: How about this compound: Cc1ccc(C)c(N2CCN(C(=O)CCc3nc(-c4cccc(C(F)(F)F)c4)no3)CC2)c1
Found: 7.5 µM

Lookup: Another compound to look at: COc1cc2ccccc2cc1C(=O)NC1CCC(C)CC1 (stereo not drawn)
Found: 8.67 µM

Lookup: Next up: COc1ccc(-c2cc3ccccc3s2)cc1[C@H]1[C@H]2C=CC[C@@H](C)[C@@H]2C(=O)N1Cc1ccccc1
Found: 1.53 µM

Lookup: Input C=CCn1cccc(C(=O)Nc2ccc(Cl)cc2)c1=O
Found: 3.88 µM

Lookup: Now give it for Cc1ccc(NC(=O)O/N=C/c2ccc(F)cc2)cc1 too.
Found: 8.83 µM

Lookup: Request: CCCN1C(=O)c2ccc(C(=O)Nc3ccc4c(c3)OCO4)cc2C1=O
Found: 9.64 µM

Lookup: Repeat with Cn1c(C(=O)N/N=C/c2ccccc2)cc2ccccc21
Found: 2.84 µM

Lookup: Also check C/C(CC(=O)Nc1ccc(OCc2ccccc2)cc1)=N\NC(=O)C(=O)Nc1ccc(C)c(Cl)c1
Found: 1.03 µM

Lookup: Repeat for the following compound: O=C(NCc1ccc2c(c1)OCO2)Nc1cccc(Cl)c1
Found: 7.4 µM

Lookup: What do you get for COc1ccccc1CNC(=O)C[C@H]1CC[C@H]2[C@@H](COC[C@@H](O)CN2C(=O)Nc2ccc(Cl)cc2)O1 ?
Found: 1.05 µM

Lookup: Same thing, different compound: O=C(Nc1ccc(SC(F)F)cc1)c1ccc2c(=O)n3c(nc2c1)CCC3
Found: 2.02 µM

Lookup: // next record Cc1ccc(C)c(NC(=O)c2cc(-c3cc(C)c(C)cc3O)n[nH]2)c1
Found: 3.77 µM

Lookup: Also check Cc1ccc(Nc2nc(Cl)nc(NC(C)(C)C)n2)cc1
Found: 1.47 µM

Lookup: Moving on to the next compound: COC(=O)c1ccc2nc(-c3cccc(Cl)c3)c(Cc3ccsc3)n2c1
Found: 7.98 µM

Lookup: Now give it for Cc1cccc(Nc2nc(-c3sc(C)nc3C)cs2)c1 too.
Found: 2.71 µM

Measured values drawn from PubChem BioAssay AID651717 for this set.
